# ASSAYED_SYSTEM: Metabotropic glutamate receptor 4 (Homo sapiens, UniProt Q14833)
# Sequence (Q14833 whole entry): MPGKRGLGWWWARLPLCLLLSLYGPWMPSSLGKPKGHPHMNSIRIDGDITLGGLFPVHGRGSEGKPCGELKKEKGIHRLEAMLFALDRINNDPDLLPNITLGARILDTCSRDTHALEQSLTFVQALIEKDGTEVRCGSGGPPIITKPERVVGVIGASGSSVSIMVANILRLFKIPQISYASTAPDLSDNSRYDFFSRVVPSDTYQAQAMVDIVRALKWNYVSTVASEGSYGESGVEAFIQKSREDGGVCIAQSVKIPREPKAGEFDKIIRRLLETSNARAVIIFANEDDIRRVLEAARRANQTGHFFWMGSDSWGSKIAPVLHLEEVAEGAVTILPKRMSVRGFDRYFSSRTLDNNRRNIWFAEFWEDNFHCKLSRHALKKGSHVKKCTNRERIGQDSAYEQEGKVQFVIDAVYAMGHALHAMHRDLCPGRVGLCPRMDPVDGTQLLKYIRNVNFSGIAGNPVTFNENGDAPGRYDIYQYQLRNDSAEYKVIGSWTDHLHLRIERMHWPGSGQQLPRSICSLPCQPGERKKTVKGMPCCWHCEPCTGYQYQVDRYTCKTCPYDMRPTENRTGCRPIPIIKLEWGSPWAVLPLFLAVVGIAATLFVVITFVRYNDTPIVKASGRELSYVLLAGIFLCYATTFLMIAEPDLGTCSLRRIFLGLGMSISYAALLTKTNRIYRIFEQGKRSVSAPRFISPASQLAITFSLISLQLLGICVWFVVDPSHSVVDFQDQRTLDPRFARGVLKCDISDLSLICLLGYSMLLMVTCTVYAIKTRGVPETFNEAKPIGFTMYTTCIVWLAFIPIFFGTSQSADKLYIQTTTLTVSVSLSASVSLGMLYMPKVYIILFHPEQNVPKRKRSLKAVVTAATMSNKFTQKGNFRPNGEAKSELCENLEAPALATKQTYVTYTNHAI
# TEST_SUMMARY: Tested for […] in non-neuronal cells (RGT) expressing human Metabotropic glutamate receptor 4 by measuring L-AP4 (3 uM) induced inhibition of forskolin (15 uM)-stimulated cAMP formation
MEASUREMENT_KIND: IC50

SUBSTANCE_SMILES: N[C@@H](C[C@H](CC(c1ccccc1)c1ccccc1)C(=O)O)C(=O)O
MEASUREMENT_KIND: IC50
OBSERVED: > 300 µM

Summary line: `N[C@@H](C[C@H](CCCC(c1ccccc1)c1ccccc1)C(=O)O)C(=O)O` , Metabotropic glutamate receptor 4 (Homo sapiens, UniProt Q14833), reported IC50 = > 300 µM
